All values here come from patent US11395857B2.

Assay: Biodistribution of 68Ga-labeled peptide in mice bearing B16F10 mouse melanoma
Type: in vivo, C57BL/6J mice
Conditions: B16F10 tumour, iv, total radioactivity, 1 h p.i. unblocked, C57BL/6J mice, B16F10 melanoma, read-out: Biodistribution, B16F10 tumour
Quantity measured: tissue uptake at 1 h (%ID/g)
Answers are plain numbers, in %ID/g.

Task: What does the record list as tissue uptake at 1 h for CCCC[C@H](NC(=O)CN1CCC(NC(=O)CN2CCN(CC(=O)O)CCN(CC(=O)O)CCN(CC(=O)O)CC2)CC1)C(=O)N[C@H]1CC(=O)NCCCC[C@@H](C(N)=O)N(C)C(=O)[C@H](Cc2c[nH]c3ccccc23)N(C)C(=O)[C@H](CCCNC(=N)N)N(C)C(=O)[C@@H](Cc2ccccc2)NC(=O)[C@H](Cc2c[nH]cn2)N(C)C1=O [^68Ga-labeled CCZ01099, metal not drawn] ?
Result: 6.12

---

Hi there, I'd appreciate the recorded tissue uptake at 1 h for every entry that follows.
Test: Biodistribution of 177Lu-labeled αMSH analogues in mice bearing B16F10 mouse melanoma
Type: in vivo, C57BL/6J mice
Settings: mouse, liver, iv, total radioactivity; 1 h p.i., C57BL/6J mice, B16F10 melanoma; read-out: Biodistribution, Liver
Give bare numbers, in %ID/g.

For each listed entry, give its tissue uptake at 1 h.
1. CCCC[C@H](NC(=O)CN1CCC(NC(=O)[C@H](CCCCNC(=O)CN2CCN(CC(=O)O)CCN(CC(=O)O)CCN(CC(=O)O)CC2)NC(=O)[C@H](CCC(=O)O)NC(=O)CCCc2ccc(I)cc2)CC1)C(=O)N[C@H]1CC(=O)NCCCC[C@@H](C(N)=O)NC(=O)[C@H](Cc2c[nH]c3ccccc23)NC(=O)[C@H](CCCNC(=N)N)NC(=O)[C@@H](Cc2ccccc2)NC(=O)[C@H](Cc2c[nH]cn2)NC1=O [^177Lu-labeled CCZ01082, metal not drawn]
2. CCCC[C@H](NC(=O)CN1CCC(NC(=O)CN2CCN(CC(=O)O)CCN(CC(=O)O)CCN(CC(=O)O)CC2)CC1)C(=O)N[C@H]1CC(=O)NCCCC[C@@H](C(N)=O)NC(=O)[C@H](Cc2c[nH]c3ccccc23)NC(=O)[C@H](CCCNC(=N)N)NC(=O)[C@@H](Cc2ccccc2)NC(=O)[C@H](Cc2c[nH]cn2)NC1=O [^177Lu-labeled CCZ01048, metal not drawn, reference compound]

Result:
1: 3.45; 2: 0.54

Task: Quick one: tissue uptake at 1 h for CCCC[C@H](NC(=O)CN1CCC(NC(=O)[C@H](CCCCNC(=O)CN2CCN(CC(=O)O)CCN(CC(=O)O)CCN(CC(=O)O)CC2)NC(=O)[C@H](CCC(=O)O)NC(=O)CCCc2ccc(I)cc2)CC1)C(=O)N[C@H]1CC(=O)NCCCC[C@@H](C(N)=O)N(C)C(=O)[C@H](Cc2c[nH]c3ccccc23)N(C)C(=O)[C@H](CCCNC(=N)N)N(C)C(=O)[C@@H](Cc2ccccc2)NC(=O)[C@H](Cc2c[nH]cn2)N(C)C1=O [^177Lu-labeled CCZ01088, metal not drawn] ?
Result: 2.72

---

Assay: Biodistribution of 177Lu-labeled αMSH analogues in mice bearing B16F10 mouse melanoma
Format: in vivo, C57BL/6J mice
Conditions: mouse, spleen, iv, total radioactivity; 4 h p.i., C57BL/6J mice, B16F10 melanoma; read-out: Biodistribution, Spleen
Task for the reader: assign each of the following compounds its reported tissue uptake at 4 h.
Numbers only, in %ID/g.

// worked examples, tissue uptake at 4 h included
Compound	Reported result
CCCC[C@H](NC(=O)CN1CCC(NC(=O)[C@H](CCCCNC(=O)CN2CCN(CC(=O)O)CCN(CC(=O)O)CCN(CC(=O)O)CC2)NC(=O)[C@H](CCC(=O)O)NC(=O)CCCc2ccc(I)cc2)CC1)C(=O)N[C@H]1CC(=O)NCCCC[C@@H](C(N)=O)NC(=O)[C@H](Cc2c[nH]c3ccccc23)NC(=O)[C@H](CCCNC(=N)N)NC(=O)[C@@H](Cc2ccccc2)NC(=O)[C@H](Cc2c[nH]cn2)NC1=O [^177Lu-labeled CCZ01082, metal not drawn]	1.46
CCCC[C@H](NC(=O)CN1CCC(NC(=O)CN2CCN(CC(=O)O)CCN(CC(=O)O)CCN(CC(=O)O)CC2)CC1)C(=O)N[C@H]1CC(=O)NCCCC[C@@H](C(N)=O)N(C)C(=O)[C@H](Cc2c[nH]c3ccccc23)NC(=O)[C@H](CCCNC(=N)N)N(C)C(=O)[C@@H](Cc2ccccc2)NC(=O)[C@H](Cc2c[nH]cn2)NC1=O [^177Lu-labeled CCZ01106, metal not drawn]	0.24

Okay, next one:
Task: I am curious: what tissue uptake at 4 h value has been reported for CCCC[C@H](NC(=O)CN1CCC(NC(=O)CN2CCN(CC(=O)O)CCN(CC(=O)O)CCN(CC(=O)O)CC2)CC1)C(=O)N[C@H]1CC(=O)NCCCC[C@@H](C(N)=O)NC(=O)[C@H](Cc2c[nH]c3ccccc23)NC(=O)[C@H](CCCNC(=N)N)NC(=O)[C@@H](Cc2ccccc2)NC(=O)[C@H](Cc2c[nH]cn2)NC1=O [^177Lu-labeled CCZ01048, metal not drawn, reference compound] ?
Result: 0.22
